system: C-33-A (Cervical Carcinoma); assay: Bliss excess, mean over the matrix (fraction); higher = more synergy;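 further: after 72 h of two-drug dosing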

COMPOUND: Cc1cc2ncnn2cc1Nc1ncc2c(n1)n(C1CCOCC1)c(=O)n2C [AZD7648] + CCN(CCO)CCCOc1ccc2c(Nc3cc(CC(=O)Nc4cccc(F)c4)[nH]n3)ncnc2c1 [AZD2811] (first compound max 10 µM, 7x7, partner max 1 µM)
Bliss excess: 0.045
//
COMPOUND: C[C@@H](c1ccc2nccn2c1)n1nnc2ncc(-c3cnn(C)c3)nc21 [Savolitinib] + CC1(C)CCC(CN2CCN(c3ccc(C(=O)NS(=O)(=O)c4ccc(NCC5CCOCC5)c([N+](=O)[O-])c4)c(Oc4cnc5[nH]ccc5c4)c3)CC2)=C(c2ccc(Cl)cc2)C1 [Venetoclax] (first compound max 1 µM, 7x7, partner max 1 µM)
Bliss excess: -0.0466
//
COMPOUND: COc1cc2c(cc1OCCCCCOc1cc3c(cc1OC)C(=O)N1C=C(C)C[C@H]1C=N3)N=C[C@@H]1CC(C)=CN1C2=O [SG3199] + O=C(c1cc(Cc2n[nH]c(=O)c3ccccc23)ccc1F)N1CCN(C(=O)C2CC2)CC1 [Olaparib] (first compound max 0.001 µM, 7x7, partner max 10 µM)
Bliss excess: -0.0476
